Parameter: Selectivity Index. Scope: all listed entries.
method summary: Selectivity index, ratio of IC50 for human AChE to IC50 for human BuChe

>>> reported("CO[C@H]1C[C@H]2C(=C[C@@H]1OC(=O)c1cc([N+](=O)[O-])cc([N+](=O)[O-])c1)[C@H]1CN2Cc2cc3c(cc21)OCO3")
"< 0.13"

Request: # lookup: Selectivity Index of CO[C@H]1C=C2[C@H]3CN(Cc4cc5c(cc43)OCO5)[C@H]2C[C@@H]1OC(=O)c1ccc([N+](=O)[O-])cc1Cl
Result: > 5.9

Request: # lookup: Selectivity Index of CO[C@H]1C[C@H]2C(=C[C@@H]1OC(=O)C1CCCCC1)[C@H]1CN2Cc2cc3c(cc21)OCO3
Result: > 57.8

Request: # lookup: Selectivity Index of CO[C@H]1C[C@H]2C(=C[C@@H]1OC(=O)c1cc([N+](=O)[O-])ccc1Cl)[C@H]1CN2Cc2cc3c(cc21)OCO3
Result: < 0.03

---

Observed IC50, system Acetylcholinesterase (Homo sapiens, UniProt P22303).
Quick reminder: number only, in µM, skip the unit.

>>> reported("CO[C@H]1C[C@H]2C(=C[C@@H]1OC(=O)c1cc([N+](=O)[O-])ccc1Cl)[C@H]1CN2Cc2cc3c(cc21)OCO3")
3.18

Request: Tell me reported IC50 for CO[C@H]1C[C@H]2C(=C[C@@H]1OC(=O)c1cc([N+](=O)[O-])cc([N+](=O)[O-])c1)[C@H]1CN2Cc2cc3c(cc21)OCO3 , tested with Acetylcholinesterase (Homo sapiens, UniProt P22303).
Sequence (P22303 whole entry): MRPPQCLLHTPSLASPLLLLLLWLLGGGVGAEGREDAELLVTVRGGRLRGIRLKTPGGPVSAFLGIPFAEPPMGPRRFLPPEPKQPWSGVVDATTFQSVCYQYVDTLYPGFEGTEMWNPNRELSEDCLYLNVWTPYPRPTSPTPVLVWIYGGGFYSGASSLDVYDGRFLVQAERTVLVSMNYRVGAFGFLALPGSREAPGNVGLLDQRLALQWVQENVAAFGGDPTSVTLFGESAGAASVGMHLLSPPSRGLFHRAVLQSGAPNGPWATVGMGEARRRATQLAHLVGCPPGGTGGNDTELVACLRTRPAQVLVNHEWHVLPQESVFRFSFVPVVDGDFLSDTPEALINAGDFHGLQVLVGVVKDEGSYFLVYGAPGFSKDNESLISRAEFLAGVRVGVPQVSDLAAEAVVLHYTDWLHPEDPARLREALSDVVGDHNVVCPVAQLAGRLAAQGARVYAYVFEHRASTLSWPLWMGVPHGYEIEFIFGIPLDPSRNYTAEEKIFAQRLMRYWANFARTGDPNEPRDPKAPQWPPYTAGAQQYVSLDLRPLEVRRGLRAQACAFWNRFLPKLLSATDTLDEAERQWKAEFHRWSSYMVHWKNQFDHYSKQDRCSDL
Result: 13.1

---

Observed pIC50, system Cholinesterase (Homo sapiens, UniProt P06276).
pIC50: −log10 of the molar value.

>>> reported("COc1ccccc1C(=O)O[C@H]1CN2Cc3cc4c(cc3[C@]13C=C[C@@H](O)C[C@H]23)OCO4")
5.48
>>> reported("CO[C@H]1C[C@H]2C(=C[C@@H]1OC(=O)c1cccc([N+](=O)[O-])c1)[C@H]1CN2Cc2cc3c(cc21)OCO3")
"< 4.00"
>>> reported("CO[C@H]1C[C@H]2C(=C[C@@H]1OCCN1CCCCC1)[C@H]1CN2Cc2cc3c(cc21)OCO3")
"< 4.00"

Consider the additional compound presented here.
Request: # lookup: pIC50 of CO[C@H]1C[C@H]2C(=C[C@@H]1OC(=O)c1ccc([N+](=O)[O-])cc1)[C@H]1CN2Cc2cc3c(cc21)OCO3
Result: < 4.00
